measuredOn: V600E full-length B-Raf (Homo sapiens, UniProt P15056, V600E)
Construct: made in house; host or cells: Sf9 insect cells (baculovirus)
Sequence (P15056 whole entry V600E): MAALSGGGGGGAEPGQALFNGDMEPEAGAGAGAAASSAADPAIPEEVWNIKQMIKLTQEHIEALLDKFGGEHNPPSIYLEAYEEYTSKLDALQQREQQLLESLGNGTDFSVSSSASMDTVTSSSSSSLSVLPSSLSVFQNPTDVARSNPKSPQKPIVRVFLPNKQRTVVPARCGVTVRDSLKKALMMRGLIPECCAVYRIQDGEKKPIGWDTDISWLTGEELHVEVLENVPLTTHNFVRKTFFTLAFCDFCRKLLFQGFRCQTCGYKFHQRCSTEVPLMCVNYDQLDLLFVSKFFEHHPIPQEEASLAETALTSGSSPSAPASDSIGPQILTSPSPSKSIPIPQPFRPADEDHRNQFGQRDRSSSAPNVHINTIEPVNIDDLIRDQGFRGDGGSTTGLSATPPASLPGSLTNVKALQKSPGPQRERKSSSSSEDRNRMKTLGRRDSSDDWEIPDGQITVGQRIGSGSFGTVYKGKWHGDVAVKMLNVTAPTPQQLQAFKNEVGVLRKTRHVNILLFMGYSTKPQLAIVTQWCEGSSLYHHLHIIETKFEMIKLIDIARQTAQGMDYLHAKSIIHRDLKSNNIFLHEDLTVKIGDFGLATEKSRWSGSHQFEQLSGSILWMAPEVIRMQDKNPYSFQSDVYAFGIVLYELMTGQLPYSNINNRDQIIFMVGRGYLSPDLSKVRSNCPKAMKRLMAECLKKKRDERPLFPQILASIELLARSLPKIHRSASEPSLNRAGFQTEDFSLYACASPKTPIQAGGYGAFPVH
assayComment: B-Raf IC50 assay: incorporation of radio labeled phosphate from [γ-33P]ATP into FSBA-modified wild-type MEK
Type: biochemical
protocolConditions: 4 μM ATP, 60-minute incubation, representative data of multiple tests
Description: Determining the activity of Raf in the sample is possible by a number of direct and indirect detection methods (US 2004/0082014). Activity of human recombinant B-Raf protein may be assessed in vitro by assay of the incorporation of radio labeled phosphate to recombinant MAP kinase (MEK), a known physiologic substrate of B-Raf, according to US 2004/0127496 and WO 03/022840. […]
metric: IC50 (nM)

These solved cases illustrate the format of a correct answer.
- COc1n[nH]c2ncc(NC(=O)c3c(Cl)ccc(OCc4cccc5[nH]ccc45)c3F)cc12: 13
- COc1n[nH]c2ncc(NC(=O)c3c(Cl)ccc(OCc4cnn(C)c4)c3F)cc12: 25.7
- COc1n[nH]c2ncc(NC(=O)c3c(Cl)ccc(OCc4cc(C)on4)c3F)cc12: 80.1
- CC(C)c1n[nH]c2ncc(NC(=O)c3c(Cl)ccc(OCc4ccccc4)c3F)cc12: 2.29

A: Cc1n[nH]c2ncc(NC(=O)c3c(Cl)ccc(OCc4ccccc4)c3F)cc12
B: COc1n[nH]c2ncc(NC(=O)c3c(Cl)ccc(OCc4ccn(C)n4)c3F)cc12
C: CCc1n[nH]c2ncc(NC(=O)c3c(Cl)ccc(OCc4ccccc4)c3F)cc12
D: COc1n[nH]c2ncc(NC(=O)c3c(Cl)ccc(OCc4ccc(C5CC5)cc4)c3F)cc12
Would you mind ranking these molecules by ascending IC50? In your reply, arrange the labels in the requested order. D, C, A, B
